- System: NCI-H522 lung
- Run description: NCI-60 one-dose screen, 48 h
- Experimental conditions: 10 µM
Compounds without any hit were thinned out: in the full panel of roughly 83,000, 20% have a hit. Active and inactive are the calls of the source. How the source made its calls: active means growth percent below 10; inactive means the rest.
Give your call using only these classes: 1 (yes) (active), 0 (no) (inactive)

# example entries with known answers
1) Cc1noc2c(Cc3ccccc3)nn(CC(=O)N/N=C/c3ccc(F)cc3)c(=O)c12 = 0 (no)
2) Cc1ccc(NC(=O)c2ccc(-n3c(=O)[nH]c4ccccc4c3=O)cc2)cc1 = 0 (no)
3) O=C(CNc1nc(-c2ccccc2)cs1)Nc1ccc(Br)cc1 = 1 (yes)

In: // param item: `Cc1ccc([N+](=O)[O-])c(C(=O)Nc2ccc(-c3ccc4c(c3)NC(=O)/C4=C\c3ccc[nH]3)cc2)c1` ; yields the recorded call
Out: 0 (no)

In: // param item: `O=C(Nc1ccc(OCC(=O)c2ccccc2)cc1)Nc1ccc(Cl)c(C(F)(F)F)c1` ; yields the recorded call
Out: 1 (yes)

In: // param item: `C=CC(=O)Nc1nc(-c2cccc(NS(=O)(=O)c3cccc4c(N(C)C)cccc34)c2)cs1` ; yields the recorded call
Out: 1 (yes)

In: // param item: `O=C1Nc2cc(-c3ccc(NC(=O)c4cccs4)cc3)ccc2/C1=C/c1ccc[nH]1` ; yields the recorded call
Out: 0 (no)

In: // param item: C=C1CCC2C3(C)COC(c4c(F)cccc4F)OC3CCC2(C)C1C/C=C1/C(=O)OCC1O (stereo not drawn) ; yields the recorded call
Out: 1 (yes)

Values compiled from PubChem BioAssay (NCI).
